Entries and their IC50
- Target desc: JAK1 (Homo sapiens (Human))
- Sequence (P23458 875-1153): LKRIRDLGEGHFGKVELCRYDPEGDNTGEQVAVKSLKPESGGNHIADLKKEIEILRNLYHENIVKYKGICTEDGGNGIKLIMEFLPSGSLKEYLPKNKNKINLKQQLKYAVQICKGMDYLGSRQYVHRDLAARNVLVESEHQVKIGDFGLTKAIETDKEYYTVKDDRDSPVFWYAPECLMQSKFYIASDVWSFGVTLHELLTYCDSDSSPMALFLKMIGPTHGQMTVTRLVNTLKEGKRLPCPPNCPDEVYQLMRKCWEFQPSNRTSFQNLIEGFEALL
- Experimental details: JAK Caliper enzyme assay at 1 mM ATP (JAK1)
- Type: biochemical
- Particulars: recombinant human kinase domain, Caliper mobility shift
Answer with a number only, understood to be in µM.

Cn1cc(-c2cn3nccc3c(-c3cnn(C4(CC#N)CN(S(C)(=O)=O)C4)c3)n2)cn1 : 0.265
CO[C@H]1C[C@@](CC#N)(n2cc(-c3nc(-c4cnn(C)c4)cn4nccc34)cn2)C1 : 0.664
CO[C@H]1C[C@@](CC#N)(n2cc(-c3nc(-c4cc(C(N)=O)n[nH]4)cn4nccc34)cn2)C1 : 2.25
Cc1cnn2cc(-c3cnn(C)c3)nc(-c3cnn([C@]4(CC#N)C[C@@H](C#N)C4)c3)c12 : 0.319
Cn1cc(-c2cn3nccc3c(-c3cnn([C@]4(CC#N)C[C@@H](c5ccn[nH]5)C4)c3)n2)cn1 : 1.08

Entry `Cn1cc(-c2cn3nccc3c(-c3cnn([C@]4(CC#N)C[C@H](CC#N)C4)c3)n2)cn1` under JAK1 (Homo sapiens (Human)) had IC50 of 0.273
